Here the recorded viability, T/C is given for each entry.
System: SW1271 complex spheroids with HUVEC/MSC, growth, % test/control
assay: Anticancer human tumor SW1271 cell line growth inhibition [AhR];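 further: spheroids exposed to agents for 7 days before readout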
studyConditions: second compound 0.1 µM; first compound 10 µM; hits give low values
Write down the numeric answer in % and omit the unit.

COc1cc(C2c3cc4c(cc3C(OC3OC5COC(C)OC5C(O)C3O)C3COC(=O)C23)OCO4)cc(OC)c1O (stereo unspecified) + Cc1ccccc1N=Nc1ccc(NC(=O)c2ccnn2C)c(C)c1 = 45.6
O=C(C=Cc1cccc(S(=O)(=O)Nc2ccccc2)c1)NO + CC(CO)NC(=O)c1cc(-c2ccc(Cl)cc2)nn(-c2cnn(C)c2)c1=O = 9.02
NS(=O)(=O)OCC1CC(n2ccc3c(NC4CCc5ccccc54)ncnc32)CC1O (stereo unspecified) + CC(CO)NC(=O)c1cc(-c2ccc(Cl)cc2)nn(-c2cnn(C)c2)c1=O = 51.8
Nc1ccccc1NC(=O)c1ccc(CNC(=O)OCc2cccnc2)cc1 + CC(CO)NC(=O)c1cc(-c2ccc(Cl)cc2)nn(-c2cnn(C)c2)c1=O = 10.7
Nc1ccn(C2OC(CO)C(O)C2(F)F)c(=O)n1 (stereo unspecified) + Cc1ccccc1N=Nc1ccc(NC(=O)c2ccnn2C)c(C)c1 = 37.2

Below: the item to evaluate.
So what does the record say about viability, T/C for NS(=O)(=O)OCC1CC(n2ccc3c(NC4CCc5ccccc54)ncnc32)CC1O (stereo unspecified) + Cc1ccccc1N=Nc1ccc(NC(=O)c2ccnn2C)c(C)c1 ? 82.5

These entries and their values trace back to PubChem BioAssay AID1919017.
